Assay: growth inhibitors of tim10-1 mutant yeast, primary screen, luminescence, uHTS (AID 463190);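 further: mutant grown at 25 °C; 0% = DMSO wells with yeast and 100% = wells holding no yeast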
Settings: S. cerevisiae tim10-1 ts strain growth, BacTiter-Glo, 24 h; at 20 µM; stronger effect = higher value
Hit rate of the full screen: of about 330,000 compounds, about 7,300 (2.2%) were called active. Only a selection was taken, and actives are over-represented in it overall.
Metric Name: inhibition (%)
Quick reminder: number only, in %, skip the unit.

Answered cases to consult:
1) O=S(=O)(c1ccc(F)cc1)N1CCN(C(=S)NC2CCCC2)CC1 : 16
2) Cc1ccc(C)c(CN2CCC(CNC(=O)Nc3ccc(C)c(F)c3)CC2)c1 : 30.5

Turning to the following compound.
Request the reported inhibition associated with "O=C1[C@@H](c2ccccc2)[C@@H](c2ccccc2)N1c1cccnc1"
66.6

Each recorded value in this set is attributed to PubChem BioAssay AID463190.
